The measurements presented in this section are drawn from ChEMBL document CHEMBL1649255.

- Test system: Human immunodeficiency virus 1
- Procedure summary: Antiviral activity against HIV1 pNL4-3 harboring Reverse transcriptase T165A mutant gene infected in TZM-bl cells after 72 hrs by luciferase assay
- Type: functional, organism-based
- Assay setup: Human immunodeficiency virus 1, pNL4-3, TZM-bl
Measurement kind: pEC50
Entry type: numeric. Quantity: pEC50, the -log10 of concentration in molar units.

Smiles | pEC50
Nc1ccn([C@@H]2CS[C@H](CO)O2)c(=O)n1 | 5.97
Cc1cn([C@H]2C=C[C@@H](CO)O2)c(=O)[nH]c1=O | 5.84
Cc1cn([C@H]2C[C@H](N=[N+]=[N-])[C@@H](CO)O2)c(=O)[nH]c1=O | 7.66

Ask: Which measured pEC50 value corresponds to C=C[C@@]1(CO)C=C[C@H](n2cc(C)c(=O)[nH]c2=O)O1 ?
Reply: 6.24

====

Listed here: items and their measured Ki.
- Target of assay: Human immunodeficiency virus type 1 reverse transcriptase (Human immunodeficiency virus 1, UniProt Q72547, M184V/T165A)
- Procedure summary: Inhibition of HIV1 Reverse transcriptase T165A/M184V mutant
Give the value, in units of nM, as a plain number.

Compound | Measurement kind | Result value
C=C[C@@]1(COP(=O)(O)OP(=O)(O)OP(=O)(O)O)C=C[C@H](n2cc(C)c(=O)[nH]c2=O)O1 | Ki | 660

Could you now look at the following compound, please?
Ask: Which measured Ki value corresponds to Cc1cn([C@H]2C=C[C@@H](COP(=O)(O)OP(=O)(O)OP(=O)(O)O)O2)c(=O)[nH]c1=O [STAVUDINE TRIPHOSPHATE] ?
Reply: 300

====

- Target of assay: Human immunodeficiency virus type 1 reverse transcriptase (Human immunodeficiency virus 1, UniProt Q72547, M184V)
- Procedure summary: Inhibition of HIV1 Reverse transcriptase M184V mutant
Listed here: items and their measured pKi.
Entry type: numeric. Quantity: pKi, the -log10 of concentration in molar units.

Ask: Which measured pKi value corresponds to C=C[C@@]1(COP(=O)(O)OP(=O)(O)OP(=O)(O)O)C=C[C@H](n2cc(C)c(=O)[nH]c2=O)O1 ?
Reply: 6.68

Ask: Which measured pKi value corresponds to Cc1cn([C@H]2C=C[C@@H](COP(=O)(O)OP(=O)(O)OP(=O)(O)O)O2)c(=O)[nH]c1=O [STAVUDINE TRIPHOSPHATE] ?
Reply: 6.10

====

- Target of assay: Human immunodeficiency virus type 1 reverse transcriptase (Human immunodeficiency virus 1, UniProt Q72547, M184V/P119S)
- Procedure summary: Inhibition of HIV1 Reverse transcriptase P119S/M184V mutant
Listed here: items and their measured pKi.
Entry type: numeric. Quantity: pKi, the -log10 of concentration in molar units.

Compound | pKi
Cc1cn([C@H]2C=C[C@@H](COP(=O)(O)OP(=O)(O)OP(=O)(O)O)O2)c(=O)[nH]c1=O [STAVUDINE TRIPHOSPHATE] | 6.32

Could you now look at the following compound, please?
Ask: Which measured pKi value corresponds to C=C[C@@]1(COP(=O)(O)OP(=O)(O)OP(=O)(O)O)C=C[C@H](n2cc(C)c(=O)[nH]c2=O)O1 ?
Reply: 6.19

====

- Tested on: Human immunodeficiency virus 1
- Procedure summary: Antiviral activity against HIV1 pNL4-3 harboring Reverse transcriptase T165A/M184V mutant gene infected in TZM-bl cells after 72 hrs by luciferase assay
- Type: functional, organism-based
- Assay setup: Human immunodeficiency virus 1, pNL4-3, TZM-bl
Measurement kind: pEC50
Entry type: numeric. Quantity: pEC50, the -log10 of concentration in molar units.

Smiles | pEC50
Cc1cn([C@H]2C[C@H](N=[N+]=[N-])[C@@H](CO)O2)c(=O)[nH]c1=O | 7.62
C=C[C@@]1(CO)C=C[C@H](n2cc(C)c(=O)[nH]c2=O)O1 | 5.88

Ask: Give recorded pEC50 with Human immunodeficiency virus 1 for the following compound: Cc1cn([C@H]2C=C[C@@H](CO)O2)c(=O)[nH]c1=O
Reply: 5.82

====

- Target of assay: Human immunodeficiency virus type 1 reverse transcriptase (Human immunodeficiency virus 1, UniProt Q72547, P119S)
- Procedure summary: Inhibition of HIV1 Reverse transcriptase P119S mutant
Measurement kind: Ki
Provide the measurement as a number trailed by its unit.

Molecule | Ki
C=C[C@@]1(COP(=O)(O)OP(=O)(O)OP(=O)(O)O)C=C[C@H](n2cc(C)c(=O)[nH]c2=O)O1 | 110 nM

Could you now look at the following molecule, please?
Ask: Which measured Ki value corresponds to Cc1cn([C@H]2C=C[C@@H](COP(=O)(O)OP(=O)(O)OP(=O)(O)O)O2)c(=O)[nH]c1=O [STAVUDINE TRIPHOSPHATE] ?
Reply: 640 nM
